Measured values drawn from ChEMBL document CHEMBL3808325 for this set.

- procedure text: Equilibrium solubility of compound in PBS by HPLC analysis
- Type: physicochemical
recorded metric: solubility thermodynamic

Consider the following illustrative entries.
>>> result("Cc1nc2cccc3c2nc1N[C@H](C)/C=C/C[C@H]1CNC(=O)c2cc-3[nH]c21")
"< 5 µM"
>>> result("Cc1nc2cccc3c2nc1NC/C=C/C[C@H]1CNC(=O)c2cc-3[nH]c21")
"< 5 µM"

Input line: Please give the measured solubility thermodynamic for this compound: Cc1nc2cccc3c2nc1N[C@@H](C)/C=C/C[C@H]1CNC(=O)c2cc-3[nH]c21
Output line: < 5 µM

----------
- procedure text: Oral bioavailability in Sprague-Dawley rat at 5 mg/kg
- Format: ADME, organism-based
- experimental setup: in vivo
recorded metric: bioavailability (%)

>>> result("Cc1nc2cccc3c2nc1N[C@H](C)/C=C\\C[C@H]1CNC(=O)c2cc-3[nH]c21")
48

A = C/C1=C\C[C@H]2CNC(=O)c3cc([nH]c32)-c2cccc3nc(C)c(nc23)NC1
B = C/C1=C/C[C@H]2CNC(=O)c3cc([nH]c32)-c2cccc3nc(C)c(nc23)NC1
Input line: Return label of the item with the larger bioavailability. Candidates: A , B . Mark your answer with the label of the selected entry.
Output line: A
(A: 35%, B: 17%)

----------
- procedure text: Clearance in Sprague-Dawley rat at 2 mg/kg, iv
- Assay type: ADME, organism-based
- experimental setup: in vivo
recorded metric: clearance (mL/min/kg)

A = C/C1=C/C[C@H]2CNC(=O)c3cc([nH]c32)-c2cccc3nc(C)c(nc23)NC1
B = Cc1nc2cccc3c2nc1N[C@H](C)/C=C\C[C@H]1CNC(=O)c2cc-3[nH]c21
Input line: Please indicate which entry, A or B , has the lower recorded clearance value. Bench note: the answer is the label of the chosen record.
Output line: B
(B: 7.83 mL/min/kg, A: 15.8 mL/min/kg)

----------
- study target: Serine/threonine-protein kinase PIM (Homo sapiens, UniProt P11309+Q9P1W9+Q86V86)
- procedure text: Inhibition of Pim1/2 in human KMS-12-BM cells assessed as phosphorylation of full-length BAD protein at Ser-112 incubated for 110 mins by flow cytometric analysis in presence of 20% FBS
- Type: cell-based
recorded metric: IC50 (nM)

Solved cases below.
>>> result("Cc1nc2cccc3c2nc1N[C@H](C)/C=C\\C[C@H]1CNC(=O)c2cc-3[nH]c21")
25
>>> result("Cc1nc2cccc3c2nc1N[C@@H](C)CCC[C@H]1CNC(=O)c2cc-3[nH]c21")
40
>>> result("Cc1nc2cccc3c2nc1N[C@@H](C)/C=C/C[C@H]1CNC(=O)c2cc-3[nH]c21")
26
>>> result("Cc1nc2cccc3c2nc1N[C@H](C)/C=C/C[C@H]1CNC(=O)c2cc-3[nH]c21")
20
>>> result("Cc1nc2cccc3c2nc1NC[C@H](C)CC[C@H]1CNC(=O)c2cc-3[nH]c21")
25

I = Cc1nc2cccc3c2nc1NC/C=C\C[C@H]1CNC(=O)c2cc-3[nH]c21
II = Cc1nc2cccc3c2nc1NC/C=C/C[C@H]1CNC(=O)c2cc-3[nH]c21
III = Cc1nc2cccc3c2nc1NC[C@@H](C)CC[C@H]1CNC(=O)c2cc-3[nH]c21
IV = Cc1nc2cccc3c2nc1NC/C=C/C[C@@H]1CNC(=O)c2cc-3[nH]c21
Input line: Hey, can you sort those molecules up there by IC50, smallest first? // rank by listing labels in the order requested
Output line: I, III, II, IV

----------
- study target: Serine/threonine-protein kinase pim-1 (Homo sapiens)
- Sequence (P11309 whole entry): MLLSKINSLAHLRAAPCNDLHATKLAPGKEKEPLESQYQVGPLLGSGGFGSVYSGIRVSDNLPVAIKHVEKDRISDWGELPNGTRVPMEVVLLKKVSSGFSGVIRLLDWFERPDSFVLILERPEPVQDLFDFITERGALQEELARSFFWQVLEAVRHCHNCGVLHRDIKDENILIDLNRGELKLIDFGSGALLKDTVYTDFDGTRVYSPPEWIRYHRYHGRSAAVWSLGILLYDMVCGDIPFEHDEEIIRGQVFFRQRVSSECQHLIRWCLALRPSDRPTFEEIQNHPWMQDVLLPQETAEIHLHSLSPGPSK
recorded metric: IC50 (nM)

Some molecules with known IC50 results, for comparison:
>>> result("Cc1nc2cccc3c2nc1NC/C=C\\C[C@@H]1CNC(=O)c2cc-3[nH]c21")
2
>>> result("CCCCNc1nc2c(-c3cc4c([nH]3)CCNC4=O)cccc2nc1C")
3
>>> result("Cc1nc2cccc3c2nc1NC[C@H](C)CC[C@H]1CNC(=O)c2cc-3[nH]c21")
0.5
>>> result("Cc1nc2cccc3c2nc1N[C@H](C)/C=C/C[C@H]1CNC(=O)c2cc-3[nH]c21")
0.3

A = Cc1nc2cccc3c2nc1NC/C=C/C[C@@H]1CNC(=O)c2cc-3[nH]c21
B = C/C1=C/C[C@H]2CNC(=O)c3cc([nH]c32)-c2cccc3nc(C)c(nc23)NC1
C = Cc1nc2cccc(-c3cc4c([nH]3)CCNC4=O)c2nc1Nc1ccccc1
D = C/C1=C\C[C@H]2CNC(=O)c3cc([nH]c32)-c2cccc3nc(C)c(nc23)NC1
E = Cc1nc2cccc3c2nc1NC/C=C\C[C@H]1CNC(=O)c2cc-3[nH]c21
Input line: Rank ascending by IC50. Form entry: ranked labels (order as requested).
Output line: E, D, B, A, C

----------
- procedure text: Drug metabolism in human liver microsomes assessed as compound turnover at 1 uM incubated for 30 mins
- Format: ADME
- experimental setup: read-out: Drug metabolism
recorded metric: metabolised at 0.5 h, 1 µM (%)

>>> result("C/C1=C/C[C@H]2CNC(=O)c3cc([nH]c32)-c2cccc3nc(C)c(nc23)NC1")
17

a = Cc1nc2cccc3c2nc1N[C@H](C)/C=C\C[C@H]1CNC(=O)c2cc-3[nH]c21
b = C/C1=C\C[C@H]2CNC(=O)c3cc([nH]c32)-c2cccc3nc(C)c(nc23)NC1
Input line: When a and b are compared, which has the higher number for metabolised at 0.5 h, 1 µM? Returns: label corresponding to the selected item.
Output line: b
(b: 45%, a: 24%)

----------
- procedure text: Half life in Sprague-Dawley rat at 2 mg/kg, iv
- Type: ADME, organism-based
- experimental setup: in vivo
recorded metric: half-life (h)

P = Cc1nc2cccc3c2nc1N[C@H](C)/C=C\C[C@H]1CNC(=O)c2cc-3[nH]c21
Q = C/C1=C/C[C@H]2CNC(=O)c3cc([nH]c32)-c2cccc3nc(C)c(nc23)NC1
Input line: Between P and Q , whose recorded half-life is greater? Could you answer with the label of the item you picked?
Output line: Q
(Q: 6.1 h, P: 4 h)

----------
- study target: Serine/threonine-protein kinase PIM (Homo sapiens, UniProt P11309+Q9P1W9+Q86V86)
- procedure text: Inhibition of Pim1/2 in human KMS-12-BM cells assessed as phosphorylation of full-length BAD protein at Ser-112 incubated for 110 mins by flow cytometric analysis in presence of 20% FBS
- Assay type: cell-based
recorded metric: IC50 (nM)

These solved cases illustrate the format of a correct answer.
>>> result("C/C1=C/C[C@H]2CNC(=O)c3cc([nH]c32)-c2cccc3nc(C)c(nc23)NC1")
14
>>> result("Cc1nc2cccc(-c3cc4c([nH]3)CCNC4=O)c2nc1Nc1ccccc1")
184

P = C/C1=C\C[C@H]2CNC(=O)c3cc([nH]c32)-c2cccc3nc(C)c(nc23)NC1
Q = Cc1nc2cccc3c2nc1NC/C=C\C[C@@H]1CNC(=O)c2cc-3[nH]c21
Input line: When their IC50 values are compared, which is larger, P or Q ? # reply format: chosen label
Output line: Q

P = Cc1nc2cccc3c2nc1N[C@H](C)CCC[C@H]1CNC(=O)c2cc-3[nH]c21
Q = Cc1nc2cccc3c2nc1NCCCC[C@@H]1CNC(=O)c2cc-3[nH]c21
Input line: Hi! Which is lower in terms of IC50, the first one P or the second one Q ? Pick one; state its label.
Output line: P

----------
- procedure text: Protein binding in rat assessed as as fraction unbound at 5 uM by rapid equilibrium dialysis method
- Assay type: ADME
- experimental setup: plasma
recorded metric: fraction unbound at 5 µM

A = Cc1nc2cccc3c2nc1N[C@H](C)/C=C\C[C@H]1CNC(=O)c2cc-3[nH]c21
B = C/C1=C/C[C@H]2CNC(=O)c3cc([nH]c32)-c2cccc3nc(C)c(nc23)NC1
Input line: # return whichever of A and B has the smaller fraction unbound at 5 µM Answer with the label corresponding to your selection.
Output line: A
(A: 0.007, B: 0.016)

----------
- procedure text: Half life in Sprague-Dawley rat at 1 mg/kg, iv
- Assay type: ADME, organism-based
- experimental setup: in vivo
recorded metric: half-life (h)
Give just the numeric value; h need not be written.

Input line: What does the record list as half-life for C/C1=C\C[C@H]2CNC(=O)c3cc([nH]c32)-c2cccc3nc(C)c(nc23)NC1 ?
Output line: 2.8

----------
The following compounds each carry a recorded IC50 for Serine/threonine-protein kinase pim-2 (Homo sapiens, UniProt Q9P1W9).
recorded metric: IC50 (nM)

Please review the following examples before continuing.
>>> result("Cc1nc2cccc(-c3cc4c([nH]3)CCNC4=O)c2nc1Nc1ccccc1")
2
>>> result("Cc1nc2cccc3c2nc1NC/C=C/C[C@@H]1CNC(=O)c2cc-3[nH]c21")
1
>>> result("Cc1nc2cccc3c2nc1N[C@H](C)CCC[C@H]1CNC(=O)c2cc-3[nH]c21")
0.2
>>> result("Cc1nc2cccc3c2nc1NC/C=C\\C[C@H]1CNC(=O)c2cc-3[nH]c21")
0.07

a = C/C1=C\C[C@H]2CNC(=O)c3cc([nH]c32)-c2cccc3nc(C)c(nc23)NC1
b = Cc1nc2cccc3c2nc1NCCCC[C@@H]1CNC(=O)c2cc-3[nH]c21
c = Cc1nc2cccc3c2nc1NC/C=C/C[C@H]1CNC(=O)c2cc-3[nH]c21
Input line: Arrange these compounds by their IC50, starting with the largest number. Please list each label once, in the requested order.
Output line: c, b, a
